# test_system: T1, CRBN, Q96SW2;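 note: pooled lentiviral library of zinc finger degron-EGFP fusions in mCherry-positive Jurkat cells, FACS-sorted after compound exposure, with degron abundance counted by next-generation sequencing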
# T1 chain: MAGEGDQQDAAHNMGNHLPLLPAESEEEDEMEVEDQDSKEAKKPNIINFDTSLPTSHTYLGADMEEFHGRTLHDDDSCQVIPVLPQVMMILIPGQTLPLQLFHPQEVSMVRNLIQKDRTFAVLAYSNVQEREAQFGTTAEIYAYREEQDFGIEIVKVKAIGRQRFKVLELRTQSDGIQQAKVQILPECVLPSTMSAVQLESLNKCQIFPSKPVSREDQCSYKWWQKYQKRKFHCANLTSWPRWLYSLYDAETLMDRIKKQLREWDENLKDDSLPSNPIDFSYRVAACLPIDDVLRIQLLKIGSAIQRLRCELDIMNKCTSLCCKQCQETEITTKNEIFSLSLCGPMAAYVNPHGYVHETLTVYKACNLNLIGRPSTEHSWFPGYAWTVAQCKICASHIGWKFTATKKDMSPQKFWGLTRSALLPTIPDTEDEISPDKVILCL
# assay_text: log2 fold change of degron read counts, EGFP-low vs EGFP+ sorted cells (limma voom), compound-induced degradation; higher = more compound-induced degradation of the degron-EGFP fusion; degrons are variants of IKZF1/3 zinc finger 2; compound dose not given here
# condition_set: Jurkat; 18 h; compound: compound 33 (diphenyl IMiD analogue)
Whole data set: some 8,300 sequences, median “log2 fold change of degron read counts, EGFP-low vs EGFP+ sorted cells (limma voom), compound-induced degradation” near -1.1, cut for the highest 2% near 3.2. The list comes from a sample in which the highest values are over-represented; it also holds close analogues and randomly drawn sequences.
experimental_endpoint: log2 fold change of degron read counts
Just the number, please.

Observe how each entry below is paired with its result.
FQCDICGATFTQKGNLLRHIKL [46F_47Q_49D_50I_52G_53A_54T_55F_67L_, Q9UKT9]: 0.81
FECPICGATFTQKGNLLRHIKL [46F_47E_49P_50I_52G_53A_54T_55F_67L_, Q9UKT9]: 1.91
FGCNICGATFTQKGNLLRHIKL [46F_47G_49N_50I_52G_53A_54T_55F_67L_, Q9UKT9]: 1.52
FWCPICGATFTQKGNLLRHIKL [46F_47W_49P_50I_52G_53A_54T_55F_67L_, Q9UKT9]: 1.64
FTCPICGATFTQKGNLLRHIKL [46F_47T_49P_50I_52G_53A_54T_55F_67L_, Q9UKT9]: 2.28

Look up log2 fold change of degron read counts: FQCNICGATFTQKGNLLRHIKL [46F_47Q_49N_50I_52G_53A_54T_55F_67L_, Q9UKT9]
1.42

Look up log2 fold change of degron read counts: FLCDICGATFTQKGNLLRHIKL [46F_47L_49D_50I_52G_53A_54T_55F_67L_, Q9UKT9]
-0.434
